The next entries give measured pIC50 for Wee1-like protein kinase (Homo sapiens, UniProt P30291).
In plain terms, pIC50 is the concentration in mol/L turned into minus its base-10 logarithm.

O=C1NC(=O)c2c1c(-c1ccccc1Cl)cc1c2c2cc(O)ccc2n1CCc1nnn[nH]1 :: 7.68
CNCCCn1c2ccc(O)cc2c2c3c(c(-c4c(Cl)cccc4Cl)cc21)C(=O)NC3=O :: 6.96

[ask] Quick one: pIC50 of CN(C)CCn1c2ccc(O)cc2c2c3c(c(-c4ccccc4Cl)cc21)C(=O)NC3=O ?
[reply] 7.02

[ask] Quick one: pIC50 of O=C1NC(=O)c2c1c(-c1c(Cl)cccc1Cl)cc1c2c2cc(O)ccc2n1CCCO ?
[reply] 8.15

[ask] Quick one: pIC50 of NC(=O)CCn1c2ccc(O)cc2c2c3c(c(-c4ccccc4Cl)cc21)C(=O)NC3=O ?
[reply] 8.22
